Listed here: items and their measured IC50.
Target: recombinant human Bcl-2 D103Y protein (Homo sapiens (Human), UniProt P10415, D103Y)
Sequence (P10415 whole entry D103Y): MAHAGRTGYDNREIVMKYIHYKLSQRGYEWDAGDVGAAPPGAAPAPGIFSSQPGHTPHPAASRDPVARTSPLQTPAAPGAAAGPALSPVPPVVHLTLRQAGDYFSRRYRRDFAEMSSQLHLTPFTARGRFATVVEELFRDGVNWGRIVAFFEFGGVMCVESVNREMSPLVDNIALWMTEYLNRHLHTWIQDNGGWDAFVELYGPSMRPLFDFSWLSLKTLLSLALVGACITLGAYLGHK
Assay: Bcl-2-D103Y Biochemical Assay (TR-FRET)
Conditions: TR-FRET, FITC labeled Bak peptide
The reply should be a number in nM, with the unit left off.

Answered cases to consult:
INSERT INTO results (compound, tgt, endpoint_result) VALUES
  ('COc1cc(CN2CCN(C3CC4(C3)CN(c3ccc(C(=O)NS(=O)(=O)c5ccc(NC[C@H]6CC[C@](C)(O)CC6)c([N+](=O)[O-])c5)c(Oc5cnc6[nH]cc(F)c6c5)c3)C4)[C@H](c3ccccc3C(C)C)C2)ccc1N1CCOCC1', 'recombinant human Bcl-2 D103Y protein (Homo sapiens (Human), UniProt P10415, D103Y)', 0.079),
  ('COc1cc(CN2CCN(C3CC4(CCN(c5ccc(C(=O)NS(=O)(=O)c6ccc(NC[C@H]7CC[C@](C)(O)CC7)c([N+](=O)[O-])c6)c(Oc6cnc7[nH]ccc7c6)c5)CC4)C3)[C@H](c3ccccc3C(C)C)C2)ccc1C', 'recombinant human Bcl-2 D103Y protein (Homo sapiens (Human), UniProt P10415, D103Y)', 0.27),
  ('COc1ccccc1CN1CCN(C2CC3(CCN(c4ccc(C(=O)NS(=O)(=O)c5ccc(NC[C@H]6CC[C@](C)(O)CC6)c([N+](=O)[O-])c5)c(Oc5cnc6[nH]ccc6c5)c4)CC3)C2)C(c2ccccc2C(C)C)C1 (stereo partly shown)', 'recombinant human Bcl-2 D103Y protein (Homo sapiens (Human), UniProt P10415, D103Y)', 0.4);

Next compound, please.
Exercise: What value of measured IC50 is listed for CC(C)c1ccccc1C1CN(Cc2ccc3c(c2)OCCO3)CCN1C1CC2(CCN(c3ccc(C(=O)NS(=O)(=O)c4ccc(NC[C@H]5CC[C@](C)(O)CC5)c([N+](=O)[O-])c4)c(Oc4cnc5[nH]ccc5c4)c3)CC2)C1 (stereo partly shown) ?
Solution: 0.62

====

Molecular target: recombinant human Bcl-2 D103Y protein (Homo sapiens (Human), UniProt P10415, D103Y)
Test: Bcl-2-D103Y Biochemical Assay (TR-FRET)
Conditions: TR-FRET, FITC labeled Bak peptide
property_label: IC50 (nM)
Give just the numeric value; nM need not be written.

INSERT INTO measurements (molecule, property_label, endpoint_result) VALUES
  ('COc1cc(CN2CCN(C3CC4(C3)CN(c3ccc(C(=O)NS(=O)(=O)c5ccc(NC[C@H]6CC[C@](C)(O)CC6)c([N+](=O)[O-])c5)c(Oc5cnc6[nH]ccc6c5)c3)C4)[C@H](c3ccccc3C(C)C)C2)cc2ccoc12', 'IC50', 0.18);

Alright, here's another molecule for you.
Exercise: GET /values?readout=IC50&item= COc1nn(C)cc1CN1CCN(C2CC3(CCN(c4ccc(C(=O)NS(=O)(=O)c5ccc(NC[C@H]6CC[C@](C)(O)CC6)c([N+](=O)[O-])c5)c(Oc5cnc6[nH]ccc6c5)c4)CC3)C2)C(c2ccccc2C(C)C)C1 (some centres unmarked)
Solution: 0.15

====

Experiment: Metabolic Stability Study, liver microsome incubation (mouse)
Assay type: in vitro ADME
Settings: mouse liver microsomes 0.5 mg/mL, 1 μM compound, NADPH; read-out: CLint (μL × min^−1 × mg^−1) mouse
Listed molecules paired with reported microsomal CLint at 1 μM
Answer with a number only, understood to be in µL/min/mg.

Exercise: Please report the recorded microsomal CLint at 1 μM for COc1cc(CN2CCN(C3CC4(C3)CN(c3ccc(C(=O)NS(=O)(=O)c5ccc(NC[C@H]6CC[C@](C)(O)CC6)c([N+](=O)[O-])c5)c(Oc5cnc6[nH]cc(F)c6c5)c3)C4)[C@H](c3ccccc3C(C)C)C2)ccc1C1CC1 [Example 232] .
Solution: 6.7
